The measured values listed here are drawn from patent US20190359687A1.

The entries below come with measured binding by ELISA relative to parental values attached.
system: T1, recombinant human GPA ectodomain (human, UniProt P02724 20-91)
T1 construct: also called recombinant hGPA ECD; recGPA
T1 sequence: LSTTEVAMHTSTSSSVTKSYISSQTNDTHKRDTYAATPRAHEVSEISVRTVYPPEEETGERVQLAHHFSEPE
protocol.details: ELISA, rec hGPA ectodomain

[
  {
    "binder": "TPP-5331 (Fab, V domains shown, also called VH: (T72R)) VH: EVQLVQSGAEVKKPGASVKVSCKASGYTFTTYTIHWVRQAPGQGLEWIGYINPSSDYTRYNPKFKDRVTLTRDKSTSTAYMELRSLRSDDTAVYYCQTGTRDYWGQGTTVTVSS VL: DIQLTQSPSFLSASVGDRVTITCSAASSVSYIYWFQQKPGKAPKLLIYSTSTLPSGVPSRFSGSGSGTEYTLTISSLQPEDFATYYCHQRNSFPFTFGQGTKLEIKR",
    "binding by ELISA relative to parental": 1.07
  },
  {
    "binder": "TPP-5317 (Fab, V domains shown, also called VH: (T31S)) VH: EVQLVQSGAEVKKPGASVKVSCKASGYTFTSYTIHWVRQAPGQGLEWIGYINPSSDYTRYNPKFKDRVTLTTDKSTSTAYMELRSLRSDDTAVYYCQTGTRDYWGQGTTVTVSS VL: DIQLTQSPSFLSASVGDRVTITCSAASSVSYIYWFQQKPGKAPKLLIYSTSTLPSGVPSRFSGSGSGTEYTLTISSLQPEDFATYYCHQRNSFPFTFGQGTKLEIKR",
    "binding by ELISA relative to parental": 1.34
  },
  {
    "binder": "TPP-5341 (Fab, V domains shown, also called VL: (A26S)) VH: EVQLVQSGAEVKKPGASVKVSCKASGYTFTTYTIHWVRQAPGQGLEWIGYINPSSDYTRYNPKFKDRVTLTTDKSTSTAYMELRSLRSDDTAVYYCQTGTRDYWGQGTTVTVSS VL: DIQLTQSPSFLSASVGDRVTITCSASSSVSYIYWFQQKPGKAPKLLIYSTSTLPSGVPSRFSGSGSGTEYTLTISSLQPEDFATYYCHQRNSFPFTFGQGTKLEIKR",
    "binding by ELISA relative to parental": 1.19
  }
]
